Provenance of the data: the supplement of paper PMC10883282

tested on: HT1080; experiment: standardised AUC of viability dose-response curve (72 h) (fraction (0-1)); higher = less growth inhibition (more resistant)
Listed here are compounds together with their documented standardised AUC.
assay endpoint: standardised AUC

[[record]]
compound = "N#CCC1(n2cc(-c3ncnc4[nH]ccc34)cn2)CN(C2CCN(C(=O)c3ccnc(C(F)(F)F)c3F)CC2)C1 [ITACITINIB]"
recorded_value = 0.977

[[record]]
compound = "COc1cc2nccc(Oc3ccc(NC(=O)NC4CC4)c(Cl)c3)c2cc1C(N)=O [LENVATINIB]"
recorded_value = 0.995

[[record]]
compound = "CO[C@@H]1[C@H](N(C)C(=O)c2ccccc2)C[C@H]2O[C@]1(C)n1c3ccccc3c3c4c(c5c6ccccc6n2c5c31)C(=O)NC4 [MIDOSTAURIN]"
recorded_value = 0.8

[[record]]
compound = "CCN(c1cc(-c2ccc(CN3CCOCC3)cc2)cc(C(=O)NCc2c(C)cc(C)[nH]c2=O)c1C)C1CCOCC1 [TAZEMETOSTAT]"
recorded_value = 0.988

[[record]]
compound = "C[C@@H](Oc1cc(-c2cnn(C3CCNCC3)c2)cnc1N)c1c(Cl)ccc(F)c1Cl [CRIZOTINIB]"
recorded_value = 0.919

[[record]]
compound = "C1=N/C2=N/c3ccc(OCCN4CCCC4)c(c3)COC/C=C/COCc3cccc(c3)C(=C1)N2 [PACRITINIB]"
recorded_value = 0.853

[[record]]
compound = "FC(F)(F)c1ccc(CNc2ccc(Cc3c[nH]c4ncc(Cl)cc34)cn2)cn1 [PEXIDARTINIB]"
recorded_value = 0.953

[[record]]
compound = "Cc1cccc(-c2[nH]c(CNc3ccccc3F)nc2-c2ccc3ncnn3c2)n1 [VACTOSERTIB]"
recorded_value = 1

[[record]]
compound = "C[C@H]1Oc2cc(cnc2N)-c2c(nn(C)c2C#N)CN(C)C(=O)c2ccc(F)cc21 [LORLATINIB]"
recorded_value = 0.977

[[record]]
compound = "C[C@@H]1COC(Nc2ccc3ncnc(Nc4ccc(OCc5nccs5)c(Cl)c4)c3c2)=N1 [VARLITINIB]"
recorded_value = 0.974

[[record]]
compound = "C=CC(=O)Nc1cc(Nc2nccc(-c3cn(C)c4ccccc34)n2)c(OC)cc1N(C)CCN(C)C [OSIMERTINIB]"
recorded_value = 0.938

[[record]]
compound = "Cc1cn(-c2cc(NC(=O)c3ccc(C)c(Nc4nccc(-c5cccnc5)n4)c3)cc(C(F)(F)F)c2)cn1 [NILOTINIB]"
recorded_value = 0.972

[[record]]
compound = "NC(=O)c1cnc2[nH]ccc2c1N[C@@H]1[C@@H]2CC3C[C@H]1C[C@@](O)(C3)C2 [PEFICITINIB]"
recorded_value = 1

[[record]]
compound = "CNC(=O)c1cc(Oc2ccc(NC(=O)Nc3ccc(Cl)c(C(F)(F)F)c3)cc2)ccn1 [SORAFENIB]"
recorded_value = 0.944

[[record]]
compound = "COc1cc(Nc2c(C#N)cnc3cc(OCCCN4CCN(C)CC4)c(OC)cc23)c(Cl)cc1Cl [BOSUTINIB]"
recorded_value = 0.917

[[record]]
compound = "CCCCCCCCCCCCCCCCCCOP(=O)([O-])OC1CC[N+](C)(C)CC1 [PERIFOSINE]"
recorded_value = 0.966


* * *

test system: MES-SA; assay: relative viability vs DMSO control (72 h) (fraction); higher = more viable cells; settings: 0.04115 µM
Listed here are molecules together with their documented relative viability.
assay endpoint: relative viability

[[record]]
molecule = "CN1CCN(CCOc2cc(OC3CCOCC3)c3c(Nc4c(Cl)ccc5c4OCO5)ncnc3c2)CC1 [Saracatinib]"
recorded_value = 0.923

[[record]]
molecule = "CNC(=O)c1cc(Oc2ccc(NC(=O)Nc3ccc(Cl)c(C(F)(F)F)c3)cc2)ccn1 [Sorafenib]"
recorded_value = 0.949

[[record]]
molecule = "C=CC(=O)Nc1cc(Nc2nccc(-c3cn(C)c4ccccc34)n2)c(OC)cc1N(C)CCN(C)C [Osimertinib]"
recorded_value = 0.941

[[record]]
molecule = "CCCS(=O)(=O)N[C@H]1C[C@@H](N(C)c2ncnc3[nH]ccc23)C1 [Abrocitinib]"
recorded_value = 0.932

[[record]]
molecule = "C[C@H]1Oc2cc(cnc2N)-c2c(nn(C)c2C#N)CN(C)C(=O)c2ccc(F)cc21 [Lorlatinib]"
recorded_value = 0.923

[[record]]
molecule = "NC(=O)c1cnc2[nH]ccc2c1N[C@@H]1[C@@H]2CC3C[C@H]1C[C@@](O)(C3)C2 [Peficitinib]"
recorded_value = 0.94

[[record]]
molecule = "Cc1nc(Nc2ncc(C(=O)Nc3c(C)cccc3Cl)s2)cc(N2CCN(CCO)CC2)n1 [Dasatinib]"
recorded_value = 0.825

[[record]]
molecule = "Cc1c(F)cc(C(=O)NC2CC2)cc1-c1ccc(C(=O)NCC(C)(C)C)cn1 [Losmapimod]"
recorded_value = 0.935


* * *

Listed here are molecules together with their documented relative viability.
system: RD; assay: relative viability vs DMSO control (72 h) (fraction); higher = more viable cells; conditions: 1.111 µM
assay endpoint: relative viability

[[record]]
smiles_code = "C[C@H]1Oc2cc(cnc2N)-c2c(nn(C)c2C#N)CN(C)C(=O)c2ccc(F)cc21"
assay_endpoint = "relative viability"
recorded_value = 0.948

[[record]]
smiles_code = "Cc1ccc(C(=O)OCc2ccc([C@@H](CN)C(=O)Nc3ccc4cnccc4c3)cc2)c(C)c1"
assay_endpoint = "relative viability"
recorded_value = 1.15

[[record]]
smiles_code = "COc1cc(Nc2c(C#N)cnc3cc(OCCCN4CCN(C)CC4)c(OC)cc23)c(Cl)cc1Cl"
assay_endpoint = "relative viability"
recorded_value = 0.88

[[record]]
smiles_code = "CCCS(=O)(=O)N[C@H]1C[C@@H](N(C)c2ncnc3[nH]ccc23)C1"
assay_endpoint = "relative viability"
recorded_value = 1.15

[[record]]
smiles_code = "Cc1cn(-c2cc(NC(=O)c3ccc(C)c(Nc4nccc(-c5cccnc5)n4)c3)cc(C(F)(F)F)c2)cn1"
assay_endpoint = "relative viability"
recorded_value = 0.898

[[record]]
smiles_code = "COc1cc2nccc(Oc3ccc(NC(=O)NC4CC4)c(Cl)c3)c2cc1C(N)=O"
assay_endpoint = "relative viability"
recorded_value = 1.04

[[record]]
smiles_code = "CN(C)C[C@@H]1CCn2cc(c3ccccc32)C2=C(C(=O)NC2=O)c2cn(c3ccccc23)CCO1"
assay_endpoint = "relative viability"
recorded_value = 1.13

[[record]]
smiles_code = "NC(=O)c1cccc2cn(-c3ccc([C@@H]4CCCNC4)cc3)nc12"
assay_endpoint = "relative viability"
recorded_value = 1.01

[[record]]
smiles_code = "CO[C@H]1C[C@@H]2CC[C@@H](C)[C@@](O)(O2)C(=O)C(=O)N2CCCC[C@H]2C(=O)O[C@H]([C@H](C)C[C@@H]2CC[C@@H](O)[C@H](OC)C2)CC(=O)[C@H](C)/C=C(\\C)[C@@H](O)[C@@H](OC)C(=O)[C@H](C)C[C@H](C)/C=C/C=C/C=C/1C"
assay_endpoint = "relative viability"
recorded_value = 0.588


* * *

test system: SK-LMS-1; experiment: relative viability vs DMSO control (72 h) (fraction); higher = more viable cells; conditions: 0.00051 µM
assay endpoint: relative viability

[[record]]
compound = "FC(F)(F)c1ccc(CNc2ccc(Cc3c[nH]c4ncc(Cl)cc34)cn2)cn1 [Pexidartinib]"
recorded_value = 1.06

[[record]]
compound = "C#Cc1cccc(Nc2ncnc3cc(OCCOC)c(OCCOC)cc23)c1 [Erlotinib]"
recorded_value = 1.06

[[record]]
compound = "C[C@H]1Oc2cc(cnc2N)-c2c(nn(C)c2C#N)CN(C)C(=O)c2ccc(F)cc21 [Lorlatinib]"
recorded_value = 1.09

[[record]]
compound = "COc1cc2c(Oc3ccc4[nH]c(C)cc4c3F)ccnc2cc1OCC1(N)CC1 [Anlotinib]"
recorded_value = 1.06

[[record]]
compound = "CCN(c1cc(-c2ccc(CN3CCOCC3)cc2)cc(C(=O)NCc2c(C)cc(C)[nH]c2=O)c1C)C1CCOCC1 [Tazemetostat]"
recorded_value = 1.02

[[record]]
compound = "COc1cc2nccc(Oc3ccc(NC(=O)C4(C(=O)Nc5ccc(F)cc5)CC4)cc3)c2cc1OC [Cabozantinib]"
recorded_value = 1.13

[[record]]
compound = "Cc1ccc(NC(=O)c2ccc(CN3CCN(C)CC3)cc2)cc1Nc1nccc(-c2cccnc2)n1 [Imatinib]"
recorded_value = 1.02


* * *

test system: SW684; assay: relative viability vs DMSO control (72 h) (fraction); higher = more viable cells; details: 0.00051 µM
assay endpoint: relative viability

[[record]]
smiles_code = "Cc1ccc(NC(=O)c2ccc(CN3CCN(C)CC3)cc2)cc1Nc1nccc(-c2cccnc2)n1"
assay_endpoint = "relative viability"
recorded_value = 0.968

[[record]]
smiles_code = "COc1cc(OC)cc(N(CCNC(C)C)c2ccc3ncc(-c4cnn(C)c4)nc3c2)c1"
assay_endpoint = "relative viability"
recorded_value = 1.17

[[record]]
smiles_code = "CO[C@H]1C[C@@H]2CC[C@@H](C)[C@@](O)(O2)C(=O)C(=O)N2CCCC[C@H]2C(=O)O[C@H]([C@H](C)C[C@@H]2CC[C@@H](O)[C@H](OC)C2)CC(=O)[C@H](C)/C=C(\\C)[C@@H](O)[C@@H](OC)C(=O)[C@H](C)C[C@H](C)/C=C/C=C/C=C/1C"
assay_endpoint = "relative viability"
recorded_value = 0.936

[[record]]
smiles_code = "C[C@@H](Oc1cc(-c2cnn(C3CCNCC3)c2)cnc1N)c1c(Cl)ccc(F)c1Cl"
assay_endpoint = "relative viability"
recorded_value = 1.19

[[record]]
smiles_code = "C1=N/C2=N/c3ccc(OCCN4CCCC4)c(c3)COC/C=C/COCc3cccc(c3)C(=C1)N2"
assay_endpoint = "relative viability"
recorded_value = 1.17

